System: PTJ64i
Experiment: MTT cell viability assay, PTJ64i
Format: cell-based
Conditions: IC50 in normal (HFF-1) fibroblast cells/IC50 in PTJ64i
measured-property: Selectivity Index (SI)

>>> obs_value("O=C(Nc1ccc([N+](=O)[O-])cc1)C(Sc1nc2cc(Cl)ccc2s1)c1ccccc1 (centres unmarked)")
1.70
>>> obs_value("O=C(Nc1ccc(Cl)c(Cl)c1)C(Sc1nc2cc(Cl)ccc2s1)c1ccccc1 (centres unmarked)")
1.32
>>> obs_value("CC(=O)Nc1ccc(NC(=O)C(Sc2nc3cc(Cl)ccc3s2)c2ccccc2)cc1 (centres unmarked)")
0.53
>>> obs_value("O=C(Nc1ccc(C(F)(F)F)cc1)C(Sc1nc2cc(Cl)ccc2s1)c1ccccc1 (centres unmarked)")
1.36
>>> obs_value("CC(=O)Nc1cccc(NC(=O)C(Sc2nc3cc(Cl)ccc3s2)c2ccccc2)c1 (centres unmarked)")
6.62
>>> obs_value("O=C(Nc1cccc(F)c1)C(Sc1nc2cc(Cl)ccc2s1)c1ccccc1 (centres unmarked)")
1.74
>>> obs_value("O=C(Nc1cccc([N+](=O)[O-])c1)C(Sc1nc2cc(Cl)ccc2s1)c1ccccc1 (centres unmarked)")
3.12
>>> obs_value("O=C(Nc1ccccc1)C(Sc1nc2cc(Cl)ccc2s1)c1ccccc1 (centres unmarked) [2b, reference compound]")
2.52
